Target Desc: T1, human PD-1 (human, UniProt Q15116 25-167)
T1 construct: The immunogen was PD1/Fc (Leu25-Gln167 fused to human IgG1 Pro100-Lys330); also called huPD-1; hPD-1
T1 sequence (Q15116 25-167 limits assumed): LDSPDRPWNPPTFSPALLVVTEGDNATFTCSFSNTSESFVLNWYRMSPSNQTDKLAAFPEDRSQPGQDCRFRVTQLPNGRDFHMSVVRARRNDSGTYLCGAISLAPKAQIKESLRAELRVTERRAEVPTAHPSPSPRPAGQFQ
Assay Info: SPR, multiple-cycle, crude Fab from E. coli; antigen form not stated
Reported Property: pKd
Here pKd is given on a logarithmic scale as minus log10 of the concentration in mol/L.

Solved entries:
(Q) # get_value(readout='pKd', item= Fab 12 (Fab, V domains shown, Crude Fab from E. coli; also called PD1-BM VL-D85T) VH: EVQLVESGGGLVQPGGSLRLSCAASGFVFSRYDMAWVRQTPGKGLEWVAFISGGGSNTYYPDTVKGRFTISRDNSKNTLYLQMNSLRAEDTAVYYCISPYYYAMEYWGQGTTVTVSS VL: DIQMTQSPSSISTSVGDRVTITCKASQDVDTAVAWYQQKPGKSPKLLIHWASTRHTGVPSRFSGSGSGTDFTLTLSSVQPEDLATYFCQQYSTFPWTFGGGTKLEIK )
(A) 9.55

(Q) # get_value(readout='pKd', item= Fab 11 (Fab, V domains shown, Crude Fab from E. coli; also called PD1-BM VL-L83F) VH: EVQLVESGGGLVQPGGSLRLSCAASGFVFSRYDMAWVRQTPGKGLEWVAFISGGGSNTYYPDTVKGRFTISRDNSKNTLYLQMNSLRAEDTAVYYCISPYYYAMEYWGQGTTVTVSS VL: DIQMTQSPSSISTSVGDRVTITCKASQDVDTAVAWYQQKPGKSPKLLIHWASTRHTGVPSRFSGSGSGTDFTLTLSSVQPEDFADYFCQQYSTFPWTFGGGTKLEIK )
(A) 9.14

(Q) # get_value(readout='pKd', item= Fab 7 (Fab, V domains shown, Crude Fab from E. coli; also called PD1-BM VL-S43A) VH: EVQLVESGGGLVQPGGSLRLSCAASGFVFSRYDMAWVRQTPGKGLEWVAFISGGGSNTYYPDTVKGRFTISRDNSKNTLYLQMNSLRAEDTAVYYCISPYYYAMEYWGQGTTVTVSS VL: DIQMTQSPSSISTSVGDRVTITCKASQDVDTAVAWYQQKPGKAPKLLIHWASTRHTGVPSRFSGSGSGTDFTLTLSSVQPEDLADYFCQQYSTFPWTFGGGTKLEIK )
(A) 9.23

(Q) # get_value(readout='pKd', item= Fab 3 (Fab, V domains shown, Crude Fab from E. coli; also called PD1-BM VH-I97A) VH: EVQLVESGGGLVQPGGSLRLSCAASGFVFSRYDMAWVRQTPGKGLEWVAFISGGGSNTYYPDTVKGRFTISRDNSKNTLYLQMNSLRAEDTAVYYCASPYYYAMEYWGQGTTVTVSS VL: DIQMTQSPSSISTSVGDRVTITCKASQDVDTAVAWYQQKPGKSPKLLIHWASTRHTGVPSRFSGSGSGTDFTLTLSSVQPEDLADYFCQQYSTFPWTFGGGTKLEIK )
(A) 8.96

Now consider the entry below.
(Q) # get_value(readout='pKd', item= Fab 10 (Fab, V domains shown, Crude Fab from E. coli; also called PD1-BM VL-V78L) VH: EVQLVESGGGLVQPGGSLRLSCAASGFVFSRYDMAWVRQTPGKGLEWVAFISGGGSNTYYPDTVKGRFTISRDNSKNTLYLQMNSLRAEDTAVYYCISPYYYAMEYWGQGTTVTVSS VL: DIQMTQSPSSISTSVGDRVTITCKASQDVDTAVAWYQQKPGKSPKLLIHWASTRHTGVPSRFSGSGSGTDFTLTLSSLQPEDLADYFCQQYSTFPWTFGGGTKLEIK )
(A) 9.54

These measurements were taken from patent US20190330346A1.
